Experiment: Solubility of the germanium carboxylates in solvents (gravimetry or NMR)
Conditions: organic solvents, result in words
value_kind: solubility in organic solvents

Example cases with answers are listed next.
CCCCCCCCCCCC(=O)[O][Ge]([O]C(=O)CCCCCCCCCCC)([O]C(=O)CCCCCCCCCCC)[O]C(=O)CCCCCCCCCCC [Ge(OLau)4, germanium(IV) tetralaurate] | poorly soluble
CC(=O)[O][Ge]([O]C(C)=O)([O]C(C)=O)[c]1ccccc1 | good soluble
CC(=O)[O][Ge]([O]C(C)=O)([O]C(C)=O)[O]C(C)=O [Ge(OAc)4, germanium(IV) tetraacetate] | poorly soluble
CC(=O)OC(=O)C[CH2][Ge]([O]C(C)=O)([O]C(C)=O)[O]C(C)=O | good soluble

Quick note, solubility in organic solvents for COC(=O)C[CH2][Ge]([O]C(C)=O)([O]C(C)=O)[O]C(C)=O landed at good soluble
